- Target desc: TYK2 (Homo sapiens)
- Construct: The kinase domain of humanTYK2 was amplified from A549 mRNA; His tag (from pBlueBacHis2A vector; nickel chelate purification) (N); made in house; host or cells: baculovirus; virus made in Sf9, large-scale expression in High Five insect cells
- Sequence (P29597 897-1176 limits assumed): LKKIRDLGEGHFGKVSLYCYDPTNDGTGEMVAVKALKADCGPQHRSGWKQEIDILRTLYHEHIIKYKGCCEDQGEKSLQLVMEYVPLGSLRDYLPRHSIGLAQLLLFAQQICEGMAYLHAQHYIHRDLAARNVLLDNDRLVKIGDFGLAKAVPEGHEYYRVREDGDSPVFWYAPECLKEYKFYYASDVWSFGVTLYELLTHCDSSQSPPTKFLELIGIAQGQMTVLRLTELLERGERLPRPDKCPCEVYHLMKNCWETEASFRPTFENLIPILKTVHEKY
- Test description: TYK2 kinase domain capture-based ELISA kinase assay
- Format: biochemical
- Reported conditions: Table 6; inhibit 50% of activity at 50 μM
pIC50: −log10 of the molar value.
Readout type: pIC50

These solved cases illustrate the format of a correct answer.
Compound	pIC50
CCN(CCO)c1ccc(Nc2nc(-c3ccccc3CO)cn3ccnc23)cc1 [drawing 96]	> 4.30
CCCC/C=C/c1cn2ccnc2c(NC2CCC(O)CC2)n1 (stereo not shown)	< 4.30
Brc1cn2ccnc2c(Nc2ccc(N3CCOCC3)cc2)n1 [drawing 100]	> 4.30
O=C(O)CCc1ccc(-c2cn3ccnc3c(NCCc3ccncc3)n2)cc1	< 4.30
CCNc1nc(-c2cccc(O)c2)cn2ccnc12	< 4.30

For CN(C)C(=O)COc1cccc(Nc2nc(-c3ccccc3Cl)cn3ccnc23)c1 the compound record lists pIC50 as > 4.30

Sample COc1cc(-c2cn3ccnc3c(NCC3CC3)n2)ccc1O ; pIC50 observed: < 4.30

----------
- Target desc: JAK3 (Homo sapiens, UniProt P52333)
- Construct: The kinase domain of humanJAK3 was amplified from U937mRNA; His tag (from pFastBac HTb vector; nickel chelate purification) (N); made in house; host or cells: baculovirus; virus made in Sf9, large-scale expression in High Five insect cells
- Sequence (P52333 822-1111 limits assumed): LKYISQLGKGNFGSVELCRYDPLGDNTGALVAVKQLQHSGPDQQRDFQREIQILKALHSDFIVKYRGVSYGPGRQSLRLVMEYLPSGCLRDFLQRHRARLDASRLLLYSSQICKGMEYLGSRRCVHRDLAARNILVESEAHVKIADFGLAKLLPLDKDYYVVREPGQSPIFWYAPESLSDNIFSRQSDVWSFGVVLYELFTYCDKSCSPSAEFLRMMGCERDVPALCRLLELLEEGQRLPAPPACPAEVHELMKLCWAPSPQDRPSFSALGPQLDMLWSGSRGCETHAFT
- Test description: JAK3 kinase domain capture-based ELISA kinase assay
- Format: biochemical
- Reported conditions: Table 3; inhibit 50% of activity at 50 μM
Recorded IC50 values for a group of molecules are listed next.

Reference set, count: 2
Substance smiles	Target desc	Reported value
COc1cncc(-c2cccc(Nc3cccnc3)n2)c1	JAK3 (Homo sapiens, UniProt P52333)	< 50 µM
COc1cc(-c2cncc(Nc3ccc(C#N)cc3)n2)cc(OC)c1OC	JAK3 (Homo sapiens, UniProt P52333)	< 50 µM

Consider Fc1ccc(CNc2cncc(-c3cccnc3)n2)cc1 . Its measured IC50 is < 50 µM

----------
Entries annotated with measured pIC50
- Target desc: TYK2 (Homo sapiens)
- Construct: The kinase domain of humanTYK2 was amplified from A549 mRNA; His tag (from pBlueBacHis2A vector; nickel chelate purification) (N); made in house; host or cells: baculovirus; virus made in Sf9, large-scale expression in High Five insect cells
- Test description: TYK2 kinase domain capture-based ELISA kinase assay
- Assay type: biochemical
- Reported conditions: Table 6; inhibit 50% of activity at 50 μM
pIC50: −log10 of the molar value.

Compound	pIC50
COc1ccccc1-c1cn2ccnc2c(Nc2ccc(N3CCOCC3)cc2)n1	> 4.30
FC(F)(F)c1cc(-c2cn3ccnc3c(NCC3CCOCC3)n2)cc(C(F)(F)F)c1	< 4.30
O=C(O)c1ccc(-c2cn3ccnc3c(Nc3ccc4cn[nH]c4c3)n2)cc1	> 4.30
Fc1ccccc1-c1cn2ccnc2c(Nc2ccc(N3CCOCC3)cc2)n1	> 4.30
CCN(CCO)c1ccc(Nc2nc(-c3ccccc3)cn3ccnc23)cc1	> 4.30
COCCNc1nc(-c2ccccc2)cn2ccnc12 [drawing 93]	< 4.30

The reported pIC50 of the compound c1cn2cc(-c3ccc4c(c3)OCO4)nc(Nc3ccc(N4CCOCC4)cc3)c2n1 was > 4.30

Sure, the documented pIC50 for Fc1ccc(-c2cn3ccnc3c(Nc3ccc4[nH]ccc4c3)n2)cc1Cl is > 4.30
